Test system: SF-268 CNS
Test: NCI-60 one-dose screen, 48 h
Conditions: 10 µM unless noted
This is part of a sample that, as a whole, favours compounds with a hit. Of some 83,000 tested, about 20% had one in any assay. The source made the active and inactive calls. Rule for the calls: active = growth percent below 10; inactive = the rest.
Possible outcomes: T (active), F (inactive)

[[record]]
compound = "Nc1c(C(=O)Nc2cccc3ccccc23)sc2nc3c(cc12)COCC3"
label_value = "F"

[[record]]
compound = "CC1CCCN(CCCCCOc2ccc3oc4ccc(Cl)cc4c(=O)c3c2)C1 (stereo not given)"
label_value = "F"

[[record]]
compound = "COc1ccc(C2=NN(c3ccc(S(N)(=O)=O)cc3)C(c3ccc(Cl)cc3)C2)c(O)c1 (stereo not given)"
label_value = "F"

[[record]]
compound = "C#Cc1ccccc1NC(=O)c1sc2nc3c(cc2c1N)CCCCCC3"
label_value = "F"

[[record]]
compound = "N#Cc1c(-c2ccc(F)cc2)nc(N/N=C/c2c[nH]c3ccccc23)nc1N1CCOCC1"
label_value = "F"

[[record]]
compound = "COc1cc(-c2csc(NC(=O)Nc3ccc(C(F)(F)F)cc3)n2)cc(OC)c1OC"
label_value = "F"

[[record]]
compound = "O=C(O)CCNC1CCCCC1"
label_value = "F"

[[record]]
compound = "CCOc1ccc(C2N(c3cc(OC)c(OC)c(OC)c3)C(=O)C2(F)F)cc1 (stereo not given)"
label_value = "F"

[[record]]
compound = "COc1ccc(NC(=O)Nc2ccc(Nc3nc(C)cc(Nc4ccc(C)cc4)n3)cc2)cc1"
label_value = "T"

[[record]]
compound = "Cc1cc(C)c(NC(=O)c2sc3nc4c(cc3c2N)CCCCCC4)c(C)c1"
label_value = "F"


Every entry's value here was drawn from PubChem BioAssay (NCI).
